target: CRF1R; experiment: cell-based or functional assay
Ends that are not written are not given here.
# reported CRF1R Emax; entries follow
Your answer should be a plain number; it is taken to be in %.

| binder | measurement_units | CRF1R Emax |
| --- | --- | --- |
| ZGPPISIDLPTILLRKMIEIEKQEKEKQQAANNRLLLDTI (C-terminal amide) [SEQ ID NO 50] | % | 42 |
| ZGPPISIDLPIFLLRKMIEIEKQEKEKQQAANNRLLLDTI (C-terminal amide) [SEQ ID NO 29] | % | 79 |
| IVLSLDVPIGLLQILLEQARQEAAREQATTNARILARV-NH2 [SEQ ID NO 123] | % | 9.6 |
| ZGPPISIDLSLELLRKMIEQARARAAREQATTNARILARV (C-terminal amide) [SEQ ID NO 156] | % | 6 |

Now for the binder whose CRF1R Emax we want.
I have this binder here, IVLSLDVPIGLLQILLEQARARAAREQATSNRKLMEII-NH2 [SEQ ID NO 163] , and I need its recorded CRF1R Emax.
13

Source: patent US20030148956A1
